- Test system: WNV replicon
- Procedure Details: microbe, parasite or virus in culture
- Format: cell-based, West Nile virus (WNV)
- Condition Set: Table 2; unit inferred; read-out: WNV replicon EC50
pEC50: −log10 of the molar value.
Readout: pEC50

{"Compound": "CC[N+](C)(CC)Cc1cc(Nc2ccnc3cc(Cl)ccc23)ccc1O [AQ derivative 2]", "Readout": "pEC50", "Operator": "=", "Recorded Value": 4.52}
{"Compound": "C=CN(C)Cc1cc(Nc2ccnc3cc(Cl)ccc23)ccc1O [AQ derivative 6]", "Readout": "pEC50", "Operator": "=", "Recorded Value": 5.20}
{"Compound": "CCN(CC)Cc1cc(Nc2c(C3CCCC3)c(C)nc3cc(Cl)ccc23)ccc1O [AQ derivative 4]", "Readout": "pEC50", "Operator": "=", "Recorded Value": 5.48}
{"Compound": "COc1ccc(Nc2ccnc3cc(Cl)ccc23)cc1CN(CCCl)C(C)CCl (stereo not drawn) [AQ derivative 7]", "Readout": "pEC50", "Operator": "=", "Recorded Value": 4.83}
{"Compound": "Oc1ccc(Nc2ccnc3cc(Cl)ccc23)cc1 [AQ derivative 8]", "Readout": "pEC50", "Operator": "<", "Recorded Value": 4.00}
{"Compound": "CCN(CC)Cc1cc(Nc2c(C)cnc3cc(Cl)ccc23)ccc1O [AQ derivative 1]", "Readout": "pEC50", "Operator": "=", "Recorded Value": 4.83}

====

- Test system: DENV2 replicon
- Procedure Details: microbe, parasite or virus in culture
- Type: cell-based, Dengue Virus 2 (DENV2)
Recorded % Replicon Inhibition (Means ± SEM) DENV2 values for a group of molecules are listed next.
Readout: % Replicon Inhibition (Means ± SEM) DENV2

{"Molecule": "C=CN(C)Cc1cc(Nc2ccnc3cc(Cl)ccc23)ccc1O [AQ derivative 6]", "Recorded Value": "98.5 ± 1.3%"}
{"Molecule": "CCN(CC)Cc1cc(Nc2c(C3CCCC3)c(C)nc3cc(Cl)ccc23)ccc1O [AQ derivative 4]", "Recorded Value": "99.99 ± 0.0%"}
{"Molecule": "COc1ccc(Nc2ccnc3cc(Cl)ccc23)cc1CN(CCCl)C(C)CCl (centres unmarked) [AQ derivative 7]", "Recorded Value": "93.0 ± 2.6%"}
{"Molecule": "CCN(CC)Cc1cc(Nc2ccnc3cc(Cl)ccc23)ccc1O [AQ]", "Recorded Value": "76.3 ± 1.6%"}
{"Molecule": "Oc1ccc(Nc2ccnc3cc(Cl)ccc23)cc1 [AQ derivative 8]", "Recorded Value": "3.9 ± 0.3%"}
{"Molecule": "CCN(CC)Cc1cc(Nc2c(C)cnc3cc(Cl)ccc23)ccc1O [AQ derivative 1]", "Recorded Value": "89.9 ± 10.6%"}
{"Molecule": "CC(CCCN(CCCl)CCCl)Nc1ccnc2cc(Cl)ccc12 (centres unmarked) [chloroquine mustard]", "Recorded Value": "99.6 ± 0.32%"}
{"Molecule": "CC(CCCN(CCCl)CCCl)Nc1ccnc2cc(Cl)ccc12.O=C(O)c1cc2ccccc2c(Cc2c(O)c(C(=O)O)cc3ccccc23)c1O [chloroquine mustard pamoate]", "Recorded Value": "47.5 ± 4.9%"}
{"Molecule": "CC[N+](C)(CC)Cc1cc(Nc2ccnc3cc(Cl)ccc23)ccc1O [AQ derivative 2]", "Recorded Value": "69.9 ± 3.4%"}
{"Molecule": "CC(CCc1ccc(N(CCCl)CCCl)cc1)Nc1ccnc2cc(Cl)ccc12 (centres unmarked) [chloroquine ethyl phenyl mustard]", "Recorded Value": "99.8 ± 0.03%"}

Numbers sourced from patent US20170165254A1.
